# Test system: NCI-H3122
# PROCEDURE DETAILS: relative viability (nuclei count vs DMSO), 5 days (fraction); higher = more cells survive
# MEASUREMENT CONTEXT: first compound 2 µM
Measured relative viability, listed per entry.
MEASUREMENT NAME: relative viability

[[record]]
compound = "COCC1(CO)C(=O)C2CCN1CC2 (configuration not stated) [PRIMA-1MET] + CCNC(=O)c1noc(-c2cc(C(C)C)c(O)cc2O)c1-c1ccc(CN2CCOCC2)cc1 [Luminespib] (partner 0.01 µM)"
observed = 0.0983

[[record]]
compound = "COCC1(CO)C(=O)C2CCN1CC2 (configuration not stated) [PRIMA-1MET] + NC(=O)Nc1cc(-c2cccc(F)c2)sc1C(=O)N[C@H]1CCCNC1 [AZD7762] (partner 0.2 µM)"
observed = 0.985

[[record]]
compound = "COCC1(CO)C(=O)C2CCN1CC2 (configuration not stated) [PRIMA-1MET] + C[C@@H](Oc1cc(-c2cnn(C3CCNCC3)c2)cnc1N)c1c(Cl)ccc(F)c1Cl [Crizotinib] (partner 1 µM)"
observed = 0.259

[[record]]
compound = "COCC1(CO)C(=O)C2CCN1CC2 (configuration not stated) [PRIMA-1MET] + CC(C)C[C@H](NC(=O)[C@H](Cc1ccccc1)NC(=O)c1cnccn1)B(O)O [Bortezomib] (partner 0.002 µM)"
observed = 0.955

[[record]]
compound = "COCC1(CO)C(=O)C2CCN1CC2 (configuration not stated) [PRIMA-1MET] + Nc1nc2[nH]cc(CCc3ccc(C(=O)N[C@@H](CCC(=O)O)C(=O)O)cc3)c2c(=O)[nH]1 [Pemetrexed] (partner 0.2 µM)"
observed = 0.206

[[record]]
compound = "COCC1(CO)C(=O)C2CCN1CC2 (configuration not stated) [PRIMA-1MET] + CC(=O)c1c(C)c2cnc(Nc3ccc(N4CCNCC4)cn3)nc2n(C2CCCC2)c1=O [Palbociclib] (partner 0.5 µM)"
observed = 0.184

[[record]]
compound = "COCC1(CO)C(=O)C2CCN1CC2 (configuration not stated) [PRIMA-1MET] + CC(=O)Nc1cccc(-n2c(=O)n(C3CC3)c(=O)c3c(Nc4ccc(I)cc4F)n(C)c(=O)c(C)c32)c1 [Trametinib] (partner 0.02 µM)"
observed = 0.24


====

Measured relative viability, listed per entry.
# Tested on: 201T
# PROCEDURE DETAILS: relative viability (nuclei count vs DMSO), 5 days (fraction); higher = more cells survive
# MEASUREMENT CONTEXT: first compound 0.3162 µM
MEASUREMENT NAME: relative viability

[[record]]
compound = "O=c1cc(N2CCOCC2)oc2c(-c3cccc4c3sc3ccccc34)cccc12 + O=C(CCCCCCC(=O)Nc1ccccc1)NO [Vorinostat] (partner 1 µM)"
measurement_name = "relative viability"
observed = 0.959

[[record]]
compound = "CCN(CC)CCCCNc1ncc2cc(-c3cc(OC)cc(OC)c3)c(NC(=O)NC(C)(C)C)nc2n1 + O=C(c1cc(Cc2n[nH]c(=O)c3ccccc23)ccc1F)N1CCN(C(=O)C2CC2)CC1 [Olaparib] (partner 8 µM)"
measurement_name = "relative viability"
observed = 0.853

[[record]]
compound = "O=c1cc(N2CCOCC2)oc2c(-c3cccc4c3sc3ccccc34)cccc12 + Cc1nc(Nc2ncc(C(=O)Nc3c(C)cccc3Cl)s2)cc(N2CCN(CCO)CC2)n1 [Dasatinib] (partner 0.075 µM)"
measurement_name = "relative viability"
observed = 0.505

[[record]]
compound = "CCN(CC)CCCCNc1ncc2cc(-c3cc(OC)cc(OC)c3)c(NC(=O)NC(C)(C)C)nc2n1 + C[C@]1(O)C[C@@H](c2nc(-c3ccc4ccc(-c5ccccc5)nc4c3)c3c(N)nccn32)C1 [Linsitinib] (partner 1 µM)"
measurement_name = "relative viability"
observed = 1.12

[[record]]
compound = "O=c1cc(N2CCOCC2)oc2c(-c3cccc4c3sc3ccccc34)cccc12 + NC(=O)Nc1cc(-c2cccc(F)c2)sc1C(=O)N[C@H]1CCCNC1 [AZD7762] (partner 0.2 µM)"
measurement_name = "relative viability"
observed = 0.585

[[record]]
compound = "CCN(CC)CCCCNc1ncc2cc(-c3cc(OC)cc(OC)c3)c(NC(=O)NC(C)(C)C)nc2n1 + Nc1ncn([C@H]2C[C@H](O)[C@@H](CO)O2)c(=O)n1 [Decitabine] (partner 2 µM)"
measurement_name = "relative viability"
observed = 0.857


====

# Test system: HCC-15
# PROCEDURE DETAILS: relative viability (nuclei count vs DMSO), 5 days (fraction); higher = more cells survive
# MEASUREMENT CONTEXT: first compound 2.53 µM
Measured relative viability, listed per entry.
MEASUREMENT NAME: relative viability

[[record]]
compound = "O=c1cc(-c2cccc3c2Sc2ccccc2S3)oc(N2CCOCC2)c1 + Cc1nc(Nc2ncc(C(=O)Nc3c(C)cccc3Cl)s2)cc(N2CCN(CCO)CC2)n1 [Dasatinib] (partner 0.075 µM)"
measurement_name = "relative viability"
observed = 0.563

[[record]]
compound = "O=c1cc(-c2cccc3c2Sc2ccccc2S3)oc(N2CCOCC2)c1 + CS(=O)(=O)CCNCc1ccc(-c2ccc3ncnc(Nc4ccc(OCc5cccc(F)c5)c(Cl)c4)c3c2)o1 [Lapatinib] (partner 2 µM)"
measurement_name = "relative viability"
observed = 0.82

[[record]]
compound = "COc1nc(C)cnc1NS(=O)(=O)c1cccnc1-c1ccc(-c2nnco2)cc1 [Zibotentan] + C[C@@H](Oc1cc(-c2cnn(C3CCNCC3)c2)cnc1N)c1c(Cl)ccc(F)c1Cl [Crizotinib] (partner 1 µM)"
measurement_name = "relative viability"
observed = 0.885

[[record]]
compound = "COc1nc(C)cnc1NS(=O)(=O)c1cccnc1-c1ccc(-c2nnco2)cc1 [Zibotentan] + Nc1ncn([C@H]2C[C@H](O)[C@@H](CO)O2)c(=O)n1 [Decitabine] (partner 2 µM)"
measurement_name = "relative viability"
observed = 0.696

[[record]]
compound = "COc1nc(C)cnc1NS(=O)(=O)c1cccnc1-c1ccc(-c2nnco2)cc1 [Zibotentan] + Cc1nc(NC(=O)N2CCC[C@H]2C(N)=O)sc1-c1ccnc(C(C)(C)C(F)(F)F)c1 [Alpelisib] (partner 2 µM)"
measurement_name = "relative viability"
observed = 0.844

[[record]]
compound = "O=c1cc(-c2cccc3c2Sc2ccccc2S3)oc(N2CCOCC2)c1 + CCNC(=O)c1noc(-c2cc(C(C)C)c(O)cc2O)c1-c1ccc(CN2CCOCC2)cc1 [Luminespib] (partner 0.01 µM)"
measurement_name = "relative viability"
observed = 0.242

[[record]]
compound = "COc1nc(C)cnc1NS(=O)(=O)c1cccnc1-c1ccc(-c2nnco2)cc1 [Zibotentan] + CC(C)C[C@H](NC(=O)[C@H](Cc1ccccc1)NC(=O)c1cnccn1)B(O)O [Bortezomib] (partner 0.002 µM)"
measurement_name = "relative viability"
observed = 1.09

[[record]]
compound = "COc1nc(C)cnc1NS(=O)(=O)c1cccnc1-c1ccc(-c2nnco2)cc1 [Zibotentan] + CCNC(=O)c1noc(-c2cc(C(C)C)c(O)cc2O)c1-c1ccc(CN2CCOCC2)cc1 [Luminespib] (partner 0.01 µM)"
measurement_name = "relative viability"
observed = 0.365

[[record]]
compound = "O=c1cc(-c2cccc3c2Sc2ccccc2S3)oc(N2CCOCC2)c1 + CC1(C)CCC(c2ccc(Cl)cc2)=C(CN2CCN(c3ccc(C(=O)NS(=O)(=O)c4ccc(N[C@H](CCN5CCOCC5)CSc5ccccc5)c(S(=O)(=O)C(F)(F)F)c4)cc3)CC2)C1 [Navitoclax] (partner 0.5 µM)"
measurement_name = "relative viability"
observed = 0.66


====

# Test system: NCI-H1437
# PROCEDURE DETAILS: relative viability (nuclei count vs DMSO), 5 days (fraction); higher = more cells survive
# MEASUREMENT CONTEXT: first compound 0.253 µM
Measured relative viability, listed per entry.
MEASUREMENT NAME: relative viability

[[record]]
compound = "O=c1cc(-c2cccc3c2Sc2ccccc2S3)oc(N2CCOCC2)c1 + CC(C)C[C@H](NC(=O)[C@H](Cc1ccccc1)NC(=O)c1cnccn1)B(O)O [Bortezomib] (partner 0.002 µM)"
observed = 0.626

[[record]]
compound = "COc1nc(C)cnc1NS(=O)(=O)c1cccnc1-c1ccc(-c2nnco2)cc1 [Zibotentan] + CC(C)C[C@H](NC(=O)[C@H](Cc1ccccc1)NC(=O)c1cnccn1)B(O)O [Bortezomib] (partner 0.002 µM)"
observed = 0.504

[[record]]
compound = "COc1nc(C)cnc1NS(=O)(=O)c1cccnc1-c1ccc(-c2nnco2)cc1 [Zibotentan] + C[C@]1(O)C[C@@H](c2nc(-c3ccc4ccc(-c5ccccc5)nc4c3)c3c(N)nccn32)C1 [Linsitinib] (partner 1 µM)"
observed = 1


====

# System: LXF-289
# PROCEDURE DETAILS: relative viability (nuclei count vs DMSO), 5 days (fraction); higher = more cells survive
# MEASUREMENT CONTEXT: first compound 0.01 µM
MEASUREMENT NAME: relative viability

[[record]]
molecule = "O=c1cc(N2CCOCC2)oc2c(-c3cccc4c3sc3ccccc34)cccc12 + C[C@@H](Oc1cc(-c2cnn(C3CCNCC3)c2)cnc1N)c1c(Cl)ccc(F)c1Cl [Crizotinib] (partner 1 µM)"
observed = 0.814

[[record]]
molecule = "CCN(CC)CCCCNc1ncc2cc(-c3cc(OC)cc(OC)c3)c(NC(=O)NC(C)(C)C)nc2n1 + COc1cc2c(Oc3ccc(NC(=O)C4(C(=O)Nc5ccc(F)cc5)CC4)cc3F)ccnc2cc1OCCCN1CCOCC1 [Foretinib] (partner 0.25 µM)"
observed = 0.979

[[record]]
molecule = "O=c1cc(N2CCOCC2)oc2c(-c3cccc4c3sc3ccccc34)cccc12 + O=C(c1cc(Cc2n[nH]c(=O)c3ccccc23)ccc1F)N1CCN(C(=O)C2CC2)CC1 [Olaparib] (partner 8 µM)"
observed = 1.01

[[record]]
molecule = "O=c1cc(N2CCOCC2)oc2c(-c3cccc4c3sc3ccccc34)cccc12 + NC(=O)Nc1cc(-c2cccc(F)c2)sc1C(=O)N[C@H]1CCCNC1 [AZD7762] (partner 0.2 µM)"
observed = 1.11

[[record]]
molecule = "O=c1cc(N2CCOCC2)oc2c(-c3cccc4c3sc3ccccc34)cccc12 + Cc1nc(NC(=O)N2CCC[C@H]2C(N)=O)sc1-c1ccnc(C(C)(C)C(F)(F)F)c1 [Alpelisib] (partner 2 µM)"
observed = 1.05

[[record]]
molecule = "CCN(CC)CCCCNc1ncc2cc(-c3cc(OC)cc(OC)c3)c(NC(=O)NC(C)(C)C)nc2n1 + C[C@]1(O)C[C@@H](c2nc(-c3ccc4ccc(-c5ccccc5)nc4c3)c3c(N)nccn32)C1 [Linsitinib] (partner 1 µM)"
observed = 0.974

[[record]]
molecule = "CCN(CC)CCCCNc1ncc2cc(-c3cc(OC)cc(OC)c3)c(NC(=O)NC(C)(C)C)nc2n1 + CS(=O)(=O)CCNCc1ccc(-c2ccc3ncnc(Nc4ccc(OCc5cccc(F)c5)c(Cl)c4)c3c2)o1 [Lapatinib] (partner 2 µM)"
observed = 0.893

[[record]]
molecule = "CCN(CC)CCCCNc1ncc2cc(-c3cc(OC)cc(OC)c3)c(NC(=O)NC(C)(C)C)nc2n1 + C[C@@H](Oc1cc(-c2cnn(C3CCNCC3)c2)cnc1N)c1c(Cl)ccc(F)c1Cl [Crizotinib] (partner 1 µM)"
observed = 0.836


Just for reference, the supplement of paper PMC10307832 is where these values come from.
